Target: Muscarinic acetylcholine receptor M1 (Homo sapiens)
Test: Displacement of [3H]NMS from EGFP-fused human M1 receptor N-terminal truncated at 17 residues expressed in HEK293 cells after 22 hrs by liquid scintillation counting
Assay type: cell-based
Hi there, I'd appreciate the recorded Ki for every entry that follows.
# output: bare number, implied unit µM

Consider the compound shown here: Cc1ccccc1C(=O)CCCN1CCC(CCCCCN)CC1 What is its recorded Ki? 1.95

Continue with CCCCC1CCN(CCCC(=O)c2ccccc2C)CC1 1.74

Continue with CCN(CC)c1ccc2c(-c3ccc(S(=O)(=O)NCCCCCC4CCN(CCCC(=O)c5ccccc5C)CC4)cc3S(=O)(=O)[O-])c3ccc(=[N+](CC)CC)cc-3oc2c1 1

Continue with Clc1ccc2c(c1)N=C(N1CCNCC1)c1ccccc1N2 0.0603

###

Biological target: Muscarinic acetylcholine receptor M1 (Homo sapiens, UniProt P11229)
Assay: Binding affinity to EGFP-fused human M1 receptor N-terminal truncated at 17 residues expressed in HEK293 cells after 4 hrs by FRET assay
measured_quantity: Kd (µM)
# output: bare number, implied unit µM

Consider the molecule shown here: CCN(CC)c1ccc2c(-c3ccc(S(=O)(=O)NCCCCCC4CCN(CCCC(=O)c5ccccc5C)CC4)cc3S(=O)(=O)[O-])c3ccc(=[N+](CC)CC)cc-3oc2c1 What is its recorded Kd? 0.794

###

Hi there, I'd appreciate the recorded Ki for every entry that follows.
Target: Muscarinic acetylcholine receptor M1 (Homo sapiens, UniProt P11229)
Sequence (P11229 whole entry): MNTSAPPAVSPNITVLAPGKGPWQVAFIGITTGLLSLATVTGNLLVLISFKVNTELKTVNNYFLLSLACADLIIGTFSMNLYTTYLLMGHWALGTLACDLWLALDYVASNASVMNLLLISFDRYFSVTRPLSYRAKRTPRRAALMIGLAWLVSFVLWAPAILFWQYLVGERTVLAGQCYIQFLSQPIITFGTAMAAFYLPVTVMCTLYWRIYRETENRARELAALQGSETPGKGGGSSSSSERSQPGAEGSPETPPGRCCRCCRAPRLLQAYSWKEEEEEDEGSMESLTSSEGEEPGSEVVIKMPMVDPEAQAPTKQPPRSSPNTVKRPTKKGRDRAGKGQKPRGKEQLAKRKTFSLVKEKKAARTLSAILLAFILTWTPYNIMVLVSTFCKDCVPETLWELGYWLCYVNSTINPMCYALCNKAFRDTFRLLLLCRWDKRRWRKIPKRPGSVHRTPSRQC
Format: cell-based, HEK293
# output: bare number, implied unit nM

Consider the compound shown here: COc1cc2c(cc1OC)[C@@]13CCN4CC5=CCO[C@H]6CC(=O)N2[C@H]1[C@H]6[C@H]5C[C@H]43 What is its recorded Ki? 44700

Continue with Cc1ccccc1C(=O)CCCN1CCC(CCCCCN)CC1 1290

Continue with CCCCC1CCN(CCCC(=O)c2ccccc2C)CC1 891

###

Molecular target: Muscarinic acetylcholine receptor M1 (Homo sapiens, UniProt P11229)
Assay: Partial agonist activity at EGFP-fused human full length M1 receptor expressed in HEK293 cells assessed as induction of calcium response by fluorescence assay
Format: functional, cell-based
measured_quantity: pEC50
Note on units: pEC50 is unitless, being -log10 of a concentration expressed in mol/L.

Consider the compound shown here: CCCCC1CCN(CCCC(=O)c2ccccc2C)CC1 What is its recorded pEC50? 6.68

###

Hi there, I'd appreciate the recorded IC50 for every entry that follows.
Biological target: Muscarinic acetylcholine receptor M1 (Homo sapiens, UniProt P11229)
Sequence (P11229 whole entry): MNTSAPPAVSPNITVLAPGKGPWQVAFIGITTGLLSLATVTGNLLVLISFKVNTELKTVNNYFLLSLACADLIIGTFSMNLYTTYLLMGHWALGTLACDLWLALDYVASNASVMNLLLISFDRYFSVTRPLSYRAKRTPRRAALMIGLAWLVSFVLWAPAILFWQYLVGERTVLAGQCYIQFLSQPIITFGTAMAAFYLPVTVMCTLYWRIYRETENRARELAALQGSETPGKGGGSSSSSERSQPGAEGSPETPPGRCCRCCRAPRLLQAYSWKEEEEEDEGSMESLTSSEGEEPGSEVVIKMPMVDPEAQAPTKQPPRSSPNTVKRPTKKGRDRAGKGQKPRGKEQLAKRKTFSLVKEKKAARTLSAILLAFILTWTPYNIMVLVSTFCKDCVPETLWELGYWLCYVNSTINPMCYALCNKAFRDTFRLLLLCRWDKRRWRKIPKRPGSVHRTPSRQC
Test: Antagonist activity at EGFP-fused human M1 receptor N-terminal truncated at 17 residues expressed in HEK293 cells assessed as inhibition of carbachol induced calcium response by fluorescence assay
# output: bare number, implied unit nM

Consider the compound shown here: CCN(CC)c1ccc2c(-c3ccc(S(=O)(=O)NCCCCCC4CCN(CCCC(=O)c5ccccc5C)CC4)cc3S(=O)(=O)[O-])c3ccc(=[N+](CC)CC)cc-3oc2c1 What is its recorded IC50? 300

Continue with Cc1ccccc1C(=O)CCCN1CCC(CCCCCN)CC1 3700

###

Molecular target: UniProt P11229
Assay: Partial agonist activity at EGFP-fused human M1 receptor N-terminal truncated at 11 residues expressed in HEK293 cells assessed as induction of calcium response by fluorescence assay
Format: functional, cell-based
measured_quantity: EC50 (µM)
# output: bare number, implied unit µM

State its EC50 on UniProt P11229: CCCCC1CCN(CCCC(=O)c2ccccc2C)CC1 0.72
